Test system: ATP;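 note: ATP exposure 15 min at 22 °C before imaging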
Assay: switch fluorescence ratio, 500 uM ATP over buffer (Cy3 cluster intensity, sum of 5 cycles each) (fold (ratio)); higher = stronger signal-on switching upon ATP binding; sequences stand for … in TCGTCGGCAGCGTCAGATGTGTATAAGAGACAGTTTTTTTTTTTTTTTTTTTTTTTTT…TC
Conditions: aptamer strand: ATP DNA aptamer (quencher-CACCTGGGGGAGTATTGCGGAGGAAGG + anchor), 100 nM annealed; ATP concentration: 500 uM
reported_metric: switch fluorescence ratio

polymer_sequence=TTGATGGTGC study_target=ATP observed_value=1.05
polymer_sequence=CTGTTAGGCG study_target=ATP observed_value=0.968
polymer_sequence=TGGGGACCGG study_target=ATP observed_value=1.01
polymer_sequence=TTTTCTATGT study_target=ATP observed_value=1

----------
Test system: ATP;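 note: ATP exposure 15 min at 22 °C before imaging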
Assay: switch fluorescence ratio, 500 uM ATP over buffer (Cy3 cluster intensity, sum of 5 cycles each) (fold (ratio)); higher = stronger signal-on switching upon ATP binding; sequences stand for … in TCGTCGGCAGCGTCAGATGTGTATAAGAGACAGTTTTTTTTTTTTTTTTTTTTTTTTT…TC
Conditions: aptamer strand: ATP DNA aptamer (quencher-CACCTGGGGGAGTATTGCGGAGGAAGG + anchor), 100 nM annealed; ATP concentration: 500 uM
reported_metric: switch fluorescence ratio

polymer_sequence=GGCGTAGTGC reported_metric="switch fluorescence ratio" observed_value=1.02
polymer_sequence=CTAGGGCGGA reported_metric="switch fluorescence ratio" observed_value=1.01
polymer_sequence=TAGCATCTGG reported_metric="switch fluorescence ratio" observed_value=0.98
polymer_sequence=CTGGAATTTT reported_metric="switch fluorescence ratio" observed_value=0.995
polymer_sequence=CTGTGTGTTT reported_metric="switch fluorescence ratio" observed_value=0.978
polymer_sequence=CTTAGGCGGG reported_metric="switch fluorescence ratio" observed_value=1
polymer_sequence=ATGCGGGATT reported_metric="switch fluorescence ratio" observed_value=1.01
polymer_sequence=GGTTAAATTT reported_metric="switch fluorescence ratio" observed_value=0.987
polymer_sequence=GTGATTTATT reported_metric="switch fluorescence ratio" observed_value=0.988
polymer_sequence=AAAAGGTTTT reported_metric="switch fluorescence ratio" observed_value=1
polymer_sequence=TGTCAGACGT reported_metric="switch fluorescence ratio" observed_value=1
polymer_sequence=TAGGGATATA reported_metric="switch fluorescence ratio" observed_value=0.985
polymer_sequence=GGGGTAGGTT reported_metric="switch fluorescence ratio" observed_value=1.02

----------
Test system: ATP;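 note: ATP exposure 15 min at 22 °C before imaging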
Assay: switch fluorescence ratio, 500 uM ATP over buffer (Cy3 cluster intensity, sum of 5 cycles each) (fold (ratio)); higher = stronger signal-on switching upon ATP binding; sequences stand for … in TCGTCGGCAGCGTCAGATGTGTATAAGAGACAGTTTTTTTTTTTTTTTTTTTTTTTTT…TC
Conditions: aptamer strand: ATP DNA aptamer (quencher-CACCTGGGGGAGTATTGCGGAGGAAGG + anchor), 100 nM annealed; ATP concentration: 500 uM
reported_metric: switch fluorescence ratio

polymer_sequence=TTTTAACAGG reported_metric="switch fluorescence ratio" observed_value=1.02
polymer_sequence=CGTTATAAAG reported_metric="switch fluorescence ratio" observed_value=0.981
polymer_sequence=GCAAGAATTT reported_metric="switch fluorescence ratio" observed_value=0.982
polymer_sequence=AGCTGATCTA reported_metric="switch fluorescence ratio" observed_value=0.986
polymer_sequence=GCCGTGAGAG reported_metric="switch fluorescence ratio" observed_value=0.984
polymer_sequence=GGGGTAGGGA reported_metric="switch fluorescence ratio" observed_value=1
polymer_sequence=ATTATGGTTC reported_metric="switch fluorescence ratio" observed_value=1
polymer_sequence=GATGAAGACT reported_metric="switch fluorescence ratio" observed_value=1
polymer_sequence=CGGTTGCGTT reported_metric="switch fluorescence ratio" observed_value=0.987
polymer_sequence=TGGGTTGAGG reported_metric="switch fluorescence ratio" observed_value=0.997
polymer_sequence=AAGCCGTGCG reported_metric="switch fluorescence ratio" observed_value=1.02
polymer_sequence=TAATGAGGGG reported_metric="switch fluorescence ratio" observed_value=0.992
polymer_sequence=TTGGTGTTTA reported_metric="switch fluorescence ratio" observed_value=1.01
polymer_sequence=TTTGGTGGGA reported_metric="switch fluorescence ratio" observed_value=0.972
polymer_sequence=TCTGGTAGAG reported_metric="switch fluorescence ratio" observed_value=1.02
polymer_sequence=GGGAAAGGTA reported_metric="switch fluorescence ratio" observed_value=0.986
polymer_sequence=AGAGGTTGTT reported_metric="switch fluorescence ratio" observed_value=0.995
polymer_sequence=GGGGGGTACG reported_metric="switch fluorescence ratio" observed_value=1
polymer_sequence=TTAGCGCTGG reported_metric="switch fluorescence ratio" observed_value=1.01
polymer_sequence=GGGGGGGGTC reported_metric="switch fluorescence ratio" observed_value=0.989
polymer_sequence=GAGAAGGAGG reported_metric="switch fluorescence ratio" observed_value=1.01
polymer_sequence=GGGAGTACGT reported_metric="switch fluorescence ratio" observed_value=1
polymer_sequence=GCTTTCGATG reported_metric="switch fluorescence ratio" observed_value=1.02
polymer_sequence=TAAGGTAAAA reported_metric="switch fluorescence ratio" observed_value=1
polymer_sequence=GAGTTGGGAG reported_metric="switch fluorescence ratio" observed_value=1.01
polymer_sequence=TAAGGGGTAG reported_metric="switch fluorescence ratio" observed_value=0.994
polymer_sequence=TTTAAGAGTG reported_metric="switch fluorescence ratio" observed_value=0.992

----------
Test system: ATP;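 note: ATP exposure 15 min at 22 °C before imaging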
Assay: switch fluorescence ratio, 500 uM ATP over buffer (Cy3 cluster intensity, sum of 5 cycles each) (fold (ratio)); higher = stronger signal-on switching upon ATP binding; sequences stand for … in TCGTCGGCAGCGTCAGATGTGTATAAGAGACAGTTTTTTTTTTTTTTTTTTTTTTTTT…TC
Conditions: aptamer strand: ATP DNA aptamer (quencher-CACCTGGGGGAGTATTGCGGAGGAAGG + anchor), 100 nM annealed; ATP concentration: 500 uM
reported_metric: switch fluorescence ratio

polymer_sequence=TATTGACAA observed_value=1.02
polymer_sequence=TTTGCGGAGG observed_value=1.27
polymer_sequence=TTTTCGAGGG observed_value=1.01
polymer_sequence=GAGAGGGTCA observed_value=0.98
polymer_sequence=TTTGAAGTGG observed_value=1.03
polymer_sequence=ACATAAGAGG observed_value=1.05
polymer_sequence=AGGTCTAGAG observed_value=0.976
polymer_sequence=GTCAATGGTG observed_value=0.99
polymer_sequence=ACCAAATTAT observed_value=1.03
polymer_sequence=TGAGGGGCTT observed_value=1
polymer_sequence=GTTGTATCAC observed_value=0.983
polymer_sequence=ACCCGCCTTT observed_value=1.09
polymer_sequence=GGTTTTGTCA observed_value=1.01

----------
Tested on: ATP;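 note: ATP exposure 15 min at 22 °C before imaging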
Assay: switch fluorescence ratio, 500 uM ATP over buffer (Cy3 cluster intensity, sum of 5 cycles each) (fold (ratio)); higher = stronger signal-on switching upon ATP binding; sequences stand for … in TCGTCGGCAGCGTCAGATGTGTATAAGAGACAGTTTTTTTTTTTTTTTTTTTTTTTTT…TC
Details: aptamer strand: ATP DNA aptamer (quencher-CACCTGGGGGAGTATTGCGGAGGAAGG + anchor), 100 nM annealed; ATP concentration: 500 uM
reported_metric: switch fluorescence ratio

polymer_sequence=GGTGGGATGT observed_value=0.981
polymer_sequence=CCAATAGACG observed_value=1.01
polymer_sequence=TGTGGGTGTT observed_value=0.961
polymer_sequence=AATTAGTACG observed_value=0.981
polymer_sequence=CAGTTAGCAG observed_value=1.06
polymer_sequence=TACTTTTTTT observed_value=1.01
polymer_sequence=CAGGGTTGGG observed_value=1
polymer_sequence=GATGATGGCG observed_value=1.05
polymer_sequence=CGCGTGGGCC observed_value=1.03
polymer_sequence=GGTCGACTTT observed_value=1.01
polymer_sequence=GGGTGAATGG observed_value=0.998
polymer_sequence=ACTTTTTGGC observed_value=0.975
polymer_sequence=TTTGAGGGTC observed_value=0.991
polymer_sequence=CTATTACTTA observed_value=1.02
polymer_sequence=TAGAGGCTAA observed_value=0.977
polymer_sequence=CCTTAGATTA observed_value=1.01
polymer_sequence=AGAATAATGG observed_value=1
polymer_sequence=AAGATGACGC observed_value=1.12
polymer_sequence=TATTATTTTC observed_value=1.03
polymer_sequence=TACGGTAGGA observed_value=0.984
polymer_sequence=GAGTAGACGT observed_value=0.998
polymer_sequence=ATTTGATCTG observed_value=0.985
polymer_sequence=TGGAGTAACT observed_value=1.09
polymer_sequence=TTCTTACTGG observed_value=0.995
polymer_sequence=CTAAGGAGGG observed_value=0.989
polymer_sequence=TTAGCGAGTT observed_value=0.979
polymer_sequence=AGGAGATTTT observed_value=0.957
polymer_sequence=TTTGGTGGCA observed_value=0.999
polymer_sequence=CGAGAGGCGA observed_value=1.05
polymer_sequence=GCCTAAAGTT observed_value=0.988
polymer_sequence=ACACTGCTCG observed_value=1.05
polymer_sequence=GGTTTTTGGC observed_value=1.02
polymer_sequence=GGGGCGCCTG observed_value=1.01
polymer_sequence=AAAATGATAG observed_value=1.06
